# Target Of Assay: rat mGlu2 (Rattus norvegicus (Rat))
# Test Details: mGlu2 Ca2+ flux assay
# Test Parameters: Gα15 HEK293 cells stably expressing rat mGlu2; glutamate EC80; >10,000 = no plateau; >30,000 = no measurable activity
# Description: Gα15 HEK293 cells stably expressing rat mGlu2 were plated in black-walled, clear-bottomed, poly-D-lysine coated 384-well plates in 20 μL of assay medium (DMEM containing 10% dialyzed FBS, 20 mM HEPES, and 1 mM sodium pyruvate) at a density of 12K cells/well. […] Ca^2+ flux was measured using the Functional Drug Screening System (FDSS7000, Hamamatsu, Japan). […] Calcium fluorescence measures were recorded as fold over basal fluorescence; raw data was then normalized to the maximal response to glutamate. […]
Property: IC50 (µM)
The reply should be a number in µM, with the unit left off.

In the examples that follow, each entry is paired with its recorded IC50.
| Compound | Measure Unit | Obs Value |
| --- | --- | --- |
| N#Cc1cccc(OCCOc2cnc(C(N)=O)cc2-c2ccc(F)cc2)c1 [Compound 152] | µM | 1.22 |
| N#Cc1cc(F)cc(OCCOc2cnc(C(N)=O)cc2-c2ccc(F)cc2)c1 [Compound 153] | µM | 1.37 |
| COc1ccc(-c2cc(C(N)=O)ncc2OCc2ccnc(C)c2)c(F)c1 [Compound 88] | µM | 0.029 |

Consider the record given below.
# compound NC(=O)c1cc(-c2ccc(F)cc2)c(OCCCOc2cccnc2)cn1 [Compound 128] ; its IC50 = 3.78

###

# Target Of Assay: rat mGlu2 (Rattus norvegicus (Rat), UniProt P31421)
# Sequence (P31421 19-872): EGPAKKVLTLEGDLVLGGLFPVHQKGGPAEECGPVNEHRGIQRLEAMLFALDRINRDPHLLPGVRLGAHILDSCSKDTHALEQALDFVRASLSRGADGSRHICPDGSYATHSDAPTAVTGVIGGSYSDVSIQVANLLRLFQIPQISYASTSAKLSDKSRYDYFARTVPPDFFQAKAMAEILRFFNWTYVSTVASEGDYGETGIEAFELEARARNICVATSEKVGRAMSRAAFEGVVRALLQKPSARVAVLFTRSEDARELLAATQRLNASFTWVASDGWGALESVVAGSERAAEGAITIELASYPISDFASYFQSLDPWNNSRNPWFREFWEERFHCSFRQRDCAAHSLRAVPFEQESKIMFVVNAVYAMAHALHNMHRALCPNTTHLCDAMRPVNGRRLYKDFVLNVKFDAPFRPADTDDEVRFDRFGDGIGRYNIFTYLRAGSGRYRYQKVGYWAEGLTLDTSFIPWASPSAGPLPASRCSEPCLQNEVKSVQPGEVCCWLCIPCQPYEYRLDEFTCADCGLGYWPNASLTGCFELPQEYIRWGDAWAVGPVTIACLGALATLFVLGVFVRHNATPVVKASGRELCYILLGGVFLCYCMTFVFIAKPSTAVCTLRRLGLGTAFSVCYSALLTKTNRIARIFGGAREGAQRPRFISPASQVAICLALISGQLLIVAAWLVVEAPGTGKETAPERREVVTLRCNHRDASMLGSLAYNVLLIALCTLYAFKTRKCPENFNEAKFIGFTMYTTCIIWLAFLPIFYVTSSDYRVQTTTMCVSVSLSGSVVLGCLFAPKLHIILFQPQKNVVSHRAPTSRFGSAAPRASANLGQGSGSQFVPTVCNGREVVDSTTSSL
# Test Details: mGlu2 Ca2+ flux assay
# Test Parameters: Gα15 HEK293 cells stably expressing rat mGlu2; glutamate EC80; >10,000 = no plateau; >30,000 = no measurable activity
pIC50 by entry:
// returns pIC50 (minus log10 of molar concentration), number only

In the examples that follow, each entry is paired with its recorded pIC50.
| Compound Smiles | pIC50 |
| --- | --- |
| NC(=O)c1cc(-c2ccc(F)cc2)c(OCCOc2cc(F)cc(F)c2)cn1 | 5.76 |
| Cc1ccc(OC2CCN(c3cnc(C(N)=O)cc3-c3ccc(F)cc3)CC2)cn1 | 5.02 |
| NC(=O)c1cc(-c2ccc(F)cc2)c(COc2ccc(C(F)(F)F)nc2)cn1 | 6.19 |
| N#Cc1cccc(COc2cnc(C(N)=O)cc2-c2ccc(F)cc2)c1F | 6.60 |
| NC(=O)c1cc(-c2ccc(F)cc2)c(OCc2cccnn2)cn1 | 5.83 |
| N#Cc1cc(F)cc(COc2cnc(C(N)=O)cc2-c2ccc(F)cc2)c1 | 6.03 |
| CC1(C)CN(Cc2cnc(C(N)=O)cc2-c2ccc(F)cc2)CCO1 | 6.27 |
| NC(=O)c1cc(-c2ccc(F)cc2)c(OCCCOc2ccc(C(F)(F)F)nc2)cn1 | 5.53 |

Lab note: compound `NC(=O)c1cc(-c2ccc(F)cc2)c(OCc2cc(F)cc(F)c2)cn1` tested on rat mGlu2 (Rattus norvegicus (Rat), UniProt P31421); recorded pIC50 was 6.40

Lab note: compound `Cc1ccc(OCc2cnc(C(N)=O)cc2-c2ccc(F)cc2)cn1` tested on rat mGlu2 (Rattus norvegicus (Rat), UniProt P31421); recorded pIC50 was 5.78
